Attribution: ChEMBL document CHEMBL3875216

- System: Escherichia coli
- protocol_summary: Growth inhibition of Escherichia coli MT102 at 500 uM after 24 hrs relative to control
- conditions_used: MT102, 24 h, read-out: GI
The following compounds are listed with their measured inhibition at 500 µM values.
observation_type: inhibition at 500 µM (%)

- CCCCCC(=O)CC(=O)N[C@H]1[C@H](OC(C)=O)O[C@H](COC(C)=O)[C@@H](OC(C)=O)[C@@H]1OC(C)=O: 2.3
- CCCCCCCCCC(=O)N[C@@H]1[C@@H](O)[C@H](O)[C@@H](CO)O[C@H]1O: 15.3
- CCCCCCCC(=O)N[C@H]1[C@H](OC(C)=O)O[C@H](COC(C)=O)[C@@H](OC(C)=O)[C@@H]1OC(C)=O: 6.2
- O=C(CCCc1ccccc1)N[C@@H]1[C@@H](O)[C@H](O)[C@@H](CO)O[C@H]1O: 7.7
- CCCCCCCCCCCC(=O)N[C@H]1[C@H](OC(C)=O)O[C@H](COC(C)=O)[C@@H](OC(C)=O)[C@@H]1OC(C)=O: 12.2
- CC(=O)OC[C@H]1O[C@@H](OC(C)=O)[C@H](NC(=O)Cc2c[nH]c3ccccc23)[C@@H](OC(C)=O)[C@@H]1OC(C)=O: 2.8
- CCCC(=O)N[C@@H]1[C@@H](O)[C@H](O)[C@@H](CO)O[C@H]1O: 13.5
- CCCC(=O)CC(=O)N[C@H]1[C@H](OC(C)=O)O[C@H](COC(C)=O)[C@@H](OC(C)=O)[C@@H]1OC(C)=O: 12.7
- CCCCCCCC(=O)N[C@@H]1[C@@H](O)[C@H](O)[C@@H](CO)O[C@H]1O: 0

====

- Tested on: Pseudomonas aeruginosa
- protocol_summary: Growth inhibition of Pseudomonas aeruginosa MH602 at 2 mM after 24 hrs relative to control
- conditions_used: MH602, 24 h, read-out: GI
The reader will find reported inhibition at 2000 µM values listed item by item below.
observation_type: inhibition at 2000 µM

- O=C(Cc1ccc(C(F)(F)F)cc1)N[C@@H]1[C@@H](O)[C@H](O)[C@@H](CO)O[C@H]1O: 5.8%
- CC(=O)OC[C@H]1O[C@@H](OC(C)=O)[C@H](NC(=O)Cc2ccc(Br)cc2)[C@@H](OC(C)=O)[C@@H]1OC(C)=O: 0%
- CCCC(=O)N[C@H]1[C@H](OC(C)=O)O[C@H](COC(C)=O)[C@@H](OC(C)=O)[C@@H]1OC(C)=O: 0%
- CC(=O)N[C@@H]1[C@@H](O)[C@H](O)[C@@H](CO)O[C@H]1O: 0%
- COc1ccc(CC(=O)N[C@H]2[C@H](OC(C)=O)O[C@H](COC(C)=O)[C@@H](OC(C)=O)[C@@H]2OC(C)=O)cc1: 0%
- O=C(Cc1ccc(Cl)cc1)N[C@@H]1[C@@H](O)[C@H](O)[C@@H](CO)O[C@H]1O: 0%
- CC(=O)OC[C@H]1O[C@@H](OC(C)=O)[C@H](NC(=O)Cc2ccc(C(F)(F)F)cc2)[C@@H](OC(C)=O)[C@@H]1OC(C)=O: 0%
- O=C(CCCc1ccccc1)N[C@@H]1[C@@H](O)[C@H](O)[C@@H](CO)O[C@H]1O: 0%
- CCCCCCCCCCCC(=O)N[C@H]1[C@H](OC(C)=O)O[C@H](COC(C)=O)[C@@H](OC(C)=O)[C@@H]1OC(C)=O: 0%
- COc1ccc(CC(=O)N[C@@H]2[C@@H](O)[C@H](O)[C@@H](CO)O[C@H]2O)cc1: 0%
- CC(=O)OC[C@H]1O[C@@H](OC(C)=O)[C@H](NC(=O)CCCc2ccccc2)[C@@H](OC(C)=O)[C@@H]1OC(C)=O: 3.3%
- CC(=O)OC[C@H]1O[C@@H](OC(C)=O)[C@H](NC(=O)Cc2ccc(F)cc2)[C@@H](OC(C)=O)[C@@H]1OC(C)=O: 0%
- CC(=O)OC[C@H]1O[C@@H](OC(C)=O)[C@H](NC(=O)Cc2ccc(Cl)cc2)[C@@H](OC(C)=O)[C@@H]1OC(C)=O: 0%
- CCCC(=O)CC(=O)N[C@H]1[C@H](OC(C)=O)O[C@H](COC(C)=O)[C@@H](OC(C)=O)[C@@H]1OC(C)=O: 4.6%
- CCCCCC(=O)CC(=O)N[C@H]1[C@H](OC(C)=O)O[C@H](COC(C)=O)[C@@H](OC(C)=O)[C@@H]1OC(C)=O: 0%

====

# key: entry, value: inhibition
- System: Pseudomonas aeruginosa PA14
- protocol_summary: Inhibition of quorum sensing-regulated biofilm formation in Pseudomonas aeruginosa PA14 at 2 mM after overnight incubation by crystal violet staining based assay relative to control
observation_type: inhibition (%)

• CCCCCC(=O)CC(=O)N[C@H]1[C@H](OC(C)=O)O[C@H](COC(C)=O)[C@@H](OC(C)=O)[C@@H]1OC(C)=O = 19.5
• CC(=O)OC[C@H]1O[C@@H](OC(C)=O)[C@H](NC(=O)Cc2ccc(C(F)(F)F)cc2)[C@@H](OC(C)=O)[C@@H]1OC(C)=O = 19.3
• O=C(CCCc1ccccc1)N[C@@H]1[C@@H](O)[C@H](O)[C@@H](CO)O[C@H]1O = 4.8
• O=C(Cc1ccc(F)cc1)N[C@@H]1[C@@H](O)[C@H](O)[C@@H](CO)O[C@H]1O = 5.1
• CCCCCCCC(=O)N[C@@H]1[C@@H](O)[C@H](O)[C@@H](CO)O[C@H]1O = 14
• CC(=O)OC[C@H]1O[C@@H](OC(C)=O)[C@H](NC(=O)Cc2ccc(Br)cc2)[C@@H](OC(C)=O)[C@@H]1OC(C)=O = 26.2
• O=C(Cc1ccc(Cl)cc1)N[C@@H]1[C@@H](O)[C@H](O)[C@@H](CO)O[C@H]1O = 15.3
• CC(=O)OC[C@H]1O[C@@H](OC(C)=O)[C@H](NC(=O)Cc2c[nH]c3ccccc23)[C@@H](OC(C)=O)[C@@H]1OC(C)=O = 0.5
• O=C(Cc1ccc(C(F)(F)F)cc1)N[C@@H]1[C@@H](O)[C@H](O)[C@@H](CO)O[C@H]1O = 17.8
• CCCCCCCCCCCC(=O)N[C@@H]1[C@@H](O)[C@H](O)[C@@H](CO)O[C@H]1O = 2.3
• CCCC(=O)N[C@@H]1[C@@H](O)[C@H](O)[C@@H](CO)O[C@H]1O = 22.4
• CCCC(=O)CC(=O)N[C@H]1[C@H](OC(C)=O)O[C@H](COC(C)=O)[C@@H](OC(C)=O)[C@@H]1OC(C)=O = 38.1
• COc1ccc(CC(=O)N[C@H]2[C@H](OC(C)=O)O[C@H](COC(C)=O)[C@@H](OC(C)=O)[C@@H]2OC(C)=O)cc1 = 5.6
• CCCC(=O)N[C@H]1[C@H](OC(C)=O)O[C@H](COC(C)=O)[C@@H](OC(C)=O)[C@@H]1OC(C)=O = 7.8
• CCCCCCCC(=O)N[C@H]1[C@H](OC(C)=O)O[C@H](COC(C)=O)[C@@H](OC(C)=O)[C@@H]1OC(C)=O = 21.1
• CC(=O)OC[C@H]1O[C@@H](OC(C)=O)[C@H](NC(=O)Cc2ccc(F)cc2)[C@@H](OC(C)=O)[C@@H]1OC(C)=O = 45.6

====

# inhibition listing for each entry below
- System: Pseudomonas aeruginosa PA14
- protocol_summary: Inhibition of quorum sensing-regulated pyocyanin production in Pseudomonas aeruginosa PA14 at 2 mM after 24 hrs relative to control
observation_type: inhibition (%)

* O=C(Cc1ccc(Br)cc1)N[C@@H]1[C@@H](O)[C@H](O)[C@@H](CO)O[C@H]1O | 8.6
* O=C(Cc1ccc(F)cc1)N[C@@H]1[C@@H](O)[C@H](O)[C@@H](CO)O[C@H]1O | 6.6
* CC(=O)OC[C@H]1O[C@@H](OC(C)=O)[C@H](NC(=O)Cc2ccc(Cl)cc2)[C@@H](OC(C)=O)[C@@H]1OC(C)=O | 9.3
* O=C(Cc1ccc(C(F)(F)F)cc1)N[C@@H]1[C@@H](O)[C@H](O)[C@@H](CO)O[C@H]1O | 6.6
* CCCCCC(=O)CC(=O)N[C@H]1[C@H](OC(C)=O)O[C@H](COC(C)=O)[C@@H](OC(C)=O)[C@@H]1OC(C)=O | 1.9
* CCCC(=O)N[C@@H]1[C@@H](O)[C@H](O)[C@@H](CO)O[C@H]1O | 10.6
* CCCC(=O)CC(=O)N[C@H]1[C@H](OC(C)=O)O[C@H](COC(C)=O)[C@@H](OC(C)=O)[C@@H]1OC(C)=O | 3.5
* CCCCCCCC(=O)N[C@@H]1[C@@H](O)[C@H](O)[C@@H](CO)O[C@H]1O | 11.7
* CCCCCCCCCCCC(=O)N[C@@H]1[C@@H](O)[C@H](O)[C@@H](CO)O[C@H]1O | 20.7
